Where do these numbers come from? They come from patent US11254686B1.

Target: adenosine A2B receptor (Homo sapiens (Human), UniProt P29275)
Sequence (P29275 whole entry): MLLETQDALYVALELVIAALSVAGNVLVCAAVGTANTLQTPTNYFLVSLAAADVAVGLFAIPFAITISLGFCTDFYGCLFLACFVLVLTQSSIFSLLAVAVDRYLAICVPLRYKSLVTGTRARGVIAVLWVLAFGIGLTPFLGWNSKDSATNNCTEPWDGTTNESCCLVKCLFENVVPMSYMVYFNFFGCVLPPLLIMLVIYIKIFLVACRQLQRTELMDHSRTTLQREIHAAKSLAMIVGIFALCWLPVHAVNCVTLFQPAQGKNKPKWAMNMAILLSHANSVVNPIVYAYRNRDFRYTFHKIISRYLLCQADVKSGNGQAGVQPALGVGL
Assay: Adenosine receptor activity assay (Table 1), A2B activity
Assay type: biochemical
Conditions: read-out: Ave A2B cAMP IC50
pIC50: −log10 of the molar value.
pIC50 for assorted molecules

Request - read-out pIC50 | tested on adenosine A2B receptor (Homo sapiens (Human), UniProt P29275) | molecule CC(C)(C)OC(=O)N1CC(NC(=O)c2nc(NCc3cncc(F)c3)nc3ccsc23)C1 [Example Z178]
6.30 to 7.00

Request - read-out pIC50 | tested on adenosine A2B receptor (Homo sapiens (Human), UniProt P29275) | molecule C[C@H](Nc1nc(C(=O)N2CC[C@H](CO)C2)c2sccc2n1)c1cccnc1 [Example Z259]
7.30 to 8.00

Request - read-out pIC50 | tested on adenosine A2B receptor (Homo sapiens (Human), UniProt P29275) | molecule Cc1cc2nc(N[C@@H](C)c3cccnc3)nc(C(=O)N3CC[C@@H](O)C3)c2s1 [Example Z281]
7.30 to 8.00

Request - read-out pIC50 | tested on adenosine A2B receptor (Homo sapiens (Human), UniProt P29275) | molecule COc1ccc([C@H](C)Nc2nc(C(=O)NCc3ccccn3)c3sccc3n2)cc1 [Example Z466]
< 6.30

Request - read-out pIC50 | tested on adenosine A2B receptor (Homo sapiens (Human), UniProt P29275) | molecule C[C@H](Nc1nc(C(=O)NCC2CCOCC2)c2sccc2n1)c1cncc(F)c1 [Example Z339]
> 8.00

Request - read-out pIC50 | tested on adenosine A2B receptor (Homo sapiens (Human), UniProt P29275) | molecule C[C@H](Nc1nc(C(=O)N[C@H]2C[C@@H](O)C2)c2sccc2n1)c1cncc(Cl)c1 [Example Z305]
> 8.00

Request - read-out pIC50 | tested on adenosine A2B receptor (Homo sapiens (Human), UniProt P29275) | molecule CC(=O)Nc1ccc(CCNC(=O)c2nc(N[C@@H](C)c3cccnc3)nc3cc(C)sc23)cc1 [Example Z497]
7.30 to 8.00

###

Biological target: adenosine A2B receptor (Homo sapiens (Human), UniProt P29275)
Assay: Adenosine receptor activity assay (Table 1), A2B activity
Type: biochemical
Details: A2A activity to A2B activity (A2A/A2B)
Labelling field: enter y if recorded Ratio is less than 8. Enter n if it equals or exceeds that cut-off.

These recorded examples may help you get a feel for the data.
API: query returns whether the compound falls strictly under 8 in Ratio. Query: O=C(c1nc(NCc2cccc(F)c2)nc2ccsc12)N1CC[C@@H](O)C1
y

API: query returns whether the compound falls strictly under 8 in Ratio. Query: C[C@H](Nc1nc(C(=O)N2CC(O)C2)c2sccc2n1)c1cccnc1
n

API: query returns whether the compound falls strictly under 8 in Ratio. Query: C[C@H](Nc1nc(C(=O)NCC2CCOCC2)c2sccc2n1)c1ccccn1
y

We next turn to a different compound, shown below.
API: query returns whether the compound falls strictly under 8 in Ratio. Query: O=C(NCCn1ccnc1)c1nc(NCc2cncc(F)c2)nc2ccsc12
y

###

Molecular target: adenosine A2B receptor (Homo sapiens (Human), UniProt P29275)
Test: Adenosine receptor activity assay (Table 1), A2B activity
Assay type: biochemical
Details: read-out: Ave A2B cAMP IC50
outcome measure: IC50

Below: 6 molecules and their reported IC50.
Need IC50, item C[C@H](Nc1nc(C(=O)N2CC(NC(=O)CC(C)(C)C)C2)c2sccc2n1)c1cncc(F)c1
10 to 50 nM

Need IC50, item CCO[C@H]1CCN(C(=O)c2nc(N[C@@H](C)c3ccccn3)nc3ccsc23)C1
100 to 500 nM

Need IC50, item COCC(Nc1nc(C(=O)NC2CC2)c2sccc2n1)c1cccnc1 (centres unmarked)
10 to 50 nM

Need IC50, item O=C(c1nc(NCc2cccnc2)nc2ccsc12)N1CC[C@@H](O)C1
100 to 500 nM

Need IC50, item Cc1cc2nc(N[C@@H](C)c3cncc(F)c3)nc(C(=O)NC[C@H](C)O)c2s1
< 10 nM

Need IC50, item COc1ccc(CNC(=O)c2nc(NC(C)c3ccccn3)nc3ccsc23)cn1 (centres unmarked)
100 to 500 nM

Continuing:
Need IC50, item C[C@H](Nc1nc(C(=O)N2CCC[C@H]2CO)c2sccc2n1)c1cccnc1
> 500 nM

Need IC50, item COC[C@@H]1CCN(C(=O)c2nc(N[C@@H](C)c3ccccn3)nc3cc(C)sc23)C1
10 to 50 nM

###

Molecular target: adenosine A1 receptor (Homo sapiens (Human))
Sequence (P30542 whole entry): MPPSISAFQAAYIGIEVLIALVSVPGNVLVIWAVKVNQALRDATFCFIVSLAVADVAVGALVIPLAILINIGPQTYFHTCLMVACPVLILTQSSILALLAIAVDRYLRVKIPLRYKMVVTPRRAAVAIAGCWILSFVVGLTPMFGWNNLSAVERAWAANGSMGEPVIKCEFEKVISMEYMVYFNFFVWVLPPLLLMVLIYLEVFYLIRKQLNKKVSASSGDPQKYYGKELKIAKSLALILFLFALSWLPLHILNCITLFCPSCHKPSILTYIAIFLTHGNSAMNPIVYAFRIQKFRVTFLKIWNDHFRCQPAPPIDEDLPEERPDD
Experiment: Adenosine receptor activity assay (Table 1), A1 cAMP
Format: cell-based
IC50 for assorted compounds

Request - read-out IC50 | tested on adenosine A1 receptor (Homo sapiens (Human)) | compound C[C@H](Nc1nc(C(=O)N[C@H]2CC[C@@H](O)C2)c2sccc2n1)c1cncc(F)c1
50 to 100 nM

###

Biological target: UniProtKB P29275
Assay: Adenosine receptor activity assay (Table 1), A2B activity
Assay type: biochemical
Conditions: A2A activity to A2B activity (A2A/A2B)
Could you label it 1.0 if measured Ratio is 7 or higher, and 0.0 otherwise?

These recorded examples may help you get a feel for the data.
State whether the measured Ratio reaches 7, counting equality as reaching it, for C[C@H](Nc1nc(C(=O)N2CCC(F)(F)C2)c2sccc2n1)c1cccnc1
0.0

State whether the measured Ratio reaches 7, counting equality as reaching it, for C[C@H](Nc1nc(C(=O)N2CC[C@H](O)C2)c2sc(C(F)(F)F)cc2n1)c1cccnc1
1.0

State whether the measured Ratio reaches 7, counting equality as reaching it, for O=C(c1nc(NCc2cccnc2)nc2ccsc12)N1CC[C@@H](O)C1
0.0

Continuing:
State whether the measured Ratio reaches 7, counting equality as reaching it, for O=C(NC1CCC1)c1nc(NCc2cnccn2)nc2ccsc12
0.0

State whether the measured Ratio reaches 7, counting equality as reaching it, for C[C@H](Nc1nc(C(=O)N2CC[C@H](S(C)(=O)=O)C2)c2sccc2n1)c1ccccn1
0.0

State whether the measured Ratio reaches 7, counting equality as reaching it, for O=C(NC1CCC1)c1nc(NCc2cncc(F)c2)nc2ccsc12
1.0

State whether the measured Ratio reaches 7, counting equality as reaching it, for Cc1cc2nc(N[C@@H](C)c3cccnc3)nc(C(=O)NCCO)c2s1
1.0

State whether the measured Ratio reaches 7, counting equality as reaching it, for O=C(c1nc(NCc2ccc(C(F)(F)F)nc2)nc2ccsc12)N1CC[C@H](O)C1
0.0

###

Target: adenosine A2B receptor (Homo sapiens (Human), UniProt P29275)
Assay: Adenosine receptor activity assay (Table 1), A2B activity
Type: biochemical
Details: A2A activity to A2B activity (A2A/A2B)
Ratio for assorted compounds
// response body must contain only the number

Below: 5 compounds and their reported Ratio.
Need Ratio, item C[C@H](Nc1nc(C(=O)N[C@@H](C)CO)c2sccc2n1)c1ccccn1
5.43

Need Ratio, item Cc1cc2nc(N[C@@H](C)c3ccccn3)nc(C(=O)NC[C@@H](C)O)c2s1
35.51

Need Ratio, item COc1cccc(CNC(=O)c2nc(N[C@@H](C)c3cncc(F)c3)nc3cc(C)sc23)n1
19.21

Need Ratio, item Cc1cc2nc(N[C@@H](C)c3cncc(F)c3)nc(C(=O)N3CC(O)C3)c2s1
105.81

Need Ratio, item Cc1cc2nc(N[C@@H](C)c3cccnc3)nc(C(=O)N3CCC3)c2s1
54.37

Continuing:
Need Ratio, item COc1cncc(CNc2nc(C(=O)N3CCCC3)c3sccc3n2)c1
5.15

Need Ratio, item CO[C@@H]1CCN(C(=O)c2nc(N[C@@H](C)c3cccnc3)nc3ccsc23)C1
1.37

Need Ratio, item CCC(NC(=O)c1nc(NC(CC)c2cccnc2)nc2ccsc12)c1cccnc1 (centres unmarked)
5.63

Need Ratio, item CNc1cc2nc(N[C@@H](C)c3cncc(F)c3)nc(C(=O)N3CC[C@@H](O)C3)c2s1
340.19

###

Biological target: adenosine A2B receptor (Homo sapiens (Human), UniProt P29275)
Assay: Adenosine receptor activity assay (Table 1), A2B activity
Format: biochemical
Settings: A2A activity to the A2B activity; A2A/A2B
Ratio for assorted compounds

Below: 3 compounds and their reported Ratio.
Need Ratio, item C[C@H](Nc1nc(C(=O)N2CC(NC(=O)C3CCCC3)C2)c2sccc2n1)c1cncc(F)c1 [Example Z605]
0.77

Need Ratio, item CCNC(=O)C1CCN(C(=O)c2nc(N[C@@H](C)c3cncc(F)c3)nc3ccsc23)C1 (stereo partly shown) [Example Z520]
27.57

Need Ratio, item COc1ccc([C@H](C)Nc2nc(C(=O)N3CC(NC(=O)OC(C)C)C3)c3sc(C)cc3n2)cc1 [Example Z555]
0.18

Note: attention shifts to another entry.
Need Ratio, item C[C@H](Nc1nc(C(=O)N2CC(NC(=O)C3CC(C)(C)C3)C2)c2sccc2n1)c1cncc(F)c1 [Example Z638]
0.52
